# Tested on: S. aureus GC 4536
# experiment.notes: MIC, broth microdilution
# test.parameters: Staphylococcus aureus, GC4536, read-out: MINIMAL INHIBITORY CONCENTRATION MIC, Human Serum
Task for the reader: assign each of the following compounds its reported MIC.
One number for each entry, in µg/mL.

Would you please look over these solved cases?
Cc1cc(C)cc(C(=O)OCOC(=O)N(CC(=O)Nc2cc(N(C)C)c3c(c2O)C(=O)C2=C(O)[C@]4(O)C(=O)C(C(N)=O)=C(O)[C@@H](N(C)C)[C@@H]4C[C@@H]2C3)C(C)(C)C)c1    0.5
CCCCCCC(=O)OCOC(=O)N(CC(=O)Nc1cc(N(C)C)c2c(c1O)C(=O)C1=C(O)[C@]3(O)C(=O)C(C(N)=O)=C(O)[C@@H](N(C)C)[C@@H]3C[C@@H]1C2)C(C)(C)C    0.25

Below are 2 compounds. Give each one its MIC.
1. CCC(=O)OCOC(=O)N(CC(=O)Nc1cc(N(C)C)c2c(c1O)C(=O)C1=C(O)[C@]3(O)C(=O)C(C(N)=O)=C(O)[C@@H](N(C)C)[C@@H]3C[C@@H]1C2)C(C)(C)C
2. CC(C)COC(=O)N(CC(=O)Nc1cc(N(C)C)c2c(c1O)C(=O)C1=C(O)[C@]3(O)C(=O)C(C(N)=O)=C(O)[C@@H](N(C)C)[C@@H]3C[C@@H]1C2)C(C)(C)C

A)
1: 0.25; 2: 4

Numbers sourced from patent US20070049564A1.
